TARGET DESC: T1, huCLL1-Q244-Avi-Tev-His (human, UniProt Q5QGZ9 65-265);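 also: Bio-layer interferometry with scFvs captured on biosensors via anti-V5 antibody, exposed 2 min to CLL-1 K244 or Q244 protein, 5 min dissociation, scored as binding, no binding or ambiguous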
T1 construct: extracellular domain; also called CLL-1 K244Q
T1 sequence (looked up): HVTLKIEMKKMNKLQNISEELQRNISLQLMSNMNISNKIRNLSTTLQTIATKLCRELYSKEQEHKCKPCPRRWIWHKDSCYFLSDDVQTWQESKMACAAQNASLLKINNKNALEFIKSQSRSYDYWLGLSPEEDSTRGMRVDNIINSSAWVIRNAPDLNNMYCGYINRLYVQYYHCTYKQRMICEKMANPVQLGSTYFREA
TEST METHOD NOTES: BLI
ENDPOINT LABEL: binding result

Polypeptide No. 47 (scFv, V domains shown, scFv) VH: EVQLLESGGGLVQPGGSLRLSCAASGFTFDEYAMHWVRQAPGKGLEWVSAIGAGGSTYYADSVKGRFTISRDNSKNTLYLQMNSLRAEDTAVYYCASSLGPELRGVDYYYYGMDVWGQGTTVTVSS VL: DIVMTQSPLSLPVTPGEPASISCRSSQSLLHSNGYNYLDWYLQKPGQSPQLLIYAASSLQSGVPDRFSGSGSGTDFTLKISRVEAEDVGVYYCMQGIQWPWTFGQGTKVEIKR = no binding
Polypeptide No. 59 (scFv, V domains shown, scFv) VH: EVQLLESGGGLVQPGGSLRLSCAASGFTFSNAWMSWVRQAPGKGLEWVADISYDGTNDYYADSVKGRFTISRDNSKNTLYLQMNSLRAEDTAVYYCTTEELRFGGFDYWGQGTLVTVSS VL: DIQMTQSPSSLSASVGDRVTITCRASQSISSYLNWYQQKPGKAPKLLIYDASNLETGVPSRFSGSGSGTDFTLTISSLQPEDFATYYCQQANSFPLTFGQGTKVEIKR = no binding
Polypeptide No. 72 (scFv, V domains shown, scFv) VH: QVQLVQSGAEVKKPGASVKVSCKASGGTFSNYAISWVRQAPGQGLEWMGWISAYNGNSDYAQNLQGRVTMTRDTSTSTVYMELSSLRSEDTAVYYCAIGDYFDYWGQGTLVTVSS VL: DIQMTQSPSSLSASVGDRVTITCQASEDINKYLNWYQQKPGKAPKLLIYDASNLETGVPSRFSGSGSGTDFTLTISSLQPEDFATYYCQQANSFPLTFGQGTKVEIKR = binds
Polypeptide No. 52 (scFv, V domains shown, scFv) VH: QVQLVQSGAEVKKPGASVKVSCKASGDTFTRHYVHWVRQAPGQGLEWMGIINPRGGTHYAQKFQGRVTMTRDTSTSTVYMELSSLRSEDTAVYYCARRDCSGGSCYSDLDYWGQGTLVTVSS VL: DIQMTQSPSSLSASVGDRVTITCQASQDIHNYLNWYQQKPGKAPKLLIYQASSLESGVPSRFSGSGSGTDFTLTISSLQPEDFATYYCQQANSFPLTFGGGTKLEIKR = no binding

Now let's try a different one.
Q: Provide measured binding result value, entry: Polypeptide No. 49 (scFv, V domains shown, scFv) VH: EVQLVESGGGLVKPGGSLRLSCAASGFTFSDYALHWVRQAPGKGLEWVSLISGDGGSTYYADSVKGRFTISRDDSKNTLYLQMNSLKTEDTAVYYCARDLGGERSYWGQGTLVTVSS VL: DIQMTQSPSSLSASVGDRVTITCRASQSISTWLAWYQQKPGKAPKLLIYAASTLQSGVPSRFSGSGSGTDFTLTISSLQPEDFATYYCLQDYSYPPTFGQGTKVEIKR
A: no binding
